assaySystem: T1, GFP-9S library array, motif 4 ND N98Q;D124V (synthetic construct, N98Q;D124V)
T1 chain: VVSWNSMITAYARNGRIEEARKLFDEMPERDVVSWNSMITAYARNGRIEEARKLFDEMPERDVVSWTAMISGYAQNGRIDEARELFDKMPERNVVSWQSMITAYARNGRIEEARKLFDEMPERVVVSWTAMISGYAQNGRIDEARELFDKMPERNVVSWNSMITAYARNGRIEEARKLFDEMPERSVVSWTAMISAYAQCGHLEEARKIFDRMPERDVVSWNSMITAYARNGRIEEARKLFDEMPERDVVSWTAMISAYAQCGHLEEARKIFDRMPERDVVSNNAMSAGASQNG
procedureDetails: high-throughput RNA pulldown from lysate on Ni-NTA beads; HRP: 50 mM Tris pH 8, 150 mM NaCl, 1 mM beta-mercaptoethanol, 50 ug/ml BSA, 3 ug/ml yeast RNA, 0.5% heparin; ITC and FP: Tris pH 8, 200 mM KCl, 5% glycerol; MST: 50 mM Tris pH 8, 200 mM NaCl, 1 mM DTT, BSA, heparin, 0.05% Tween 20
testParameters: tags: N-terminal His-eGFP; label: 5' Cy5

binder | Kd / µM
AUUACACGUGA (ssRNA) [Cy5-rpoA] | 3.53
AUUAGACGUGA (ssRNA) [Cy5-rpoA-G] | 3.04
